For each of the molecules below, state its ka.
Target: T1, dimeric human PRLR (hPRLR.mFc; SEQ ID NO:402) (Homo sapiens, UniProt P16471)
T1 construct: dimeric (hPRLR.mFc)
T1 sequence (P16471 with tags, fused parts or gaps): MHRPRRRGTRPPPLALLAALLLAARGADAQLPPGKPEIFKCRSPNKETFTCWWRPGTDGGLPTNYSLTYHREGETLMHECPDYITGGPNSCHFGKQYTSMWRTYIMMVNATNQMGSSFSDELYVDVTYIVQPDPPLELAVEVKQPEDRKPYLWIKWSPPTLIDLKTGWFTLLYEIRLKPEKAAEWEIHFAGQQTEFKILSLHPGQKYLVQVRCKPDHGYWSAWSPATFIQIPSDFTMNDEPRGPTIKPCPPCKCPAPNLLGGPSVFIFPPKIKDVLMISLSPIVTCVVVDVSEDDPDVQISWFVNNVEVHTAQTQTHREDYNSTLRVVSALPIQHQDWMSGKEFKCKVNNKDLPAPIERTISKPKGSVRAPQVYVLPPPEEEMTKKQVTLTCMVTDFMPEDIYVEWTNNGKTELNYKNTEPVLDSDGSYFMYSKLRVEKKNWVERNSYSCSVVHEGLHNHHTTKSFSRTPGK
Test: Surface plasmon resonance (Biacore T200), antibody-capture format
Format: binding
Conditions: 37° C., analyte hPRLR.mFc
Give the value in M/s but do not write M/s after it.

Q: Return reported ka. Input molecule: H1H6782P: fully human anti-PRLR antibody, non-blocking; HCVR/LCVR SEQ ID NOs 66/74 (antibody, V domains shown) VH: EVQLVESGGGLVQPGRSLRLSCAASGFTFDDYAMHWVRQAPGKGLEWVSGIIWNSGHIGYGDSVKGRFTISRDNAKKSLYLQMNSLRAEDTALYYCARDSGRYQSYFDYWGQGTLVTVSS VL: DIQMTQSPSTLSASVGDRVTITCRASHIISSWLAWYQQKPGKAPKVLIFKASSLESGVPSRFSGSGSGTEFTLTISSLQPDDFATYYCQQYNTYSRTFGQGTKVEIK
Result: 598000

Q: For the molecule H1H6804P: fully human anti-PRLR antibody, human IgG1 Fc; HCVR/LCVR SEQ ID NOs 242/250 (antibody, V domains shown) VH: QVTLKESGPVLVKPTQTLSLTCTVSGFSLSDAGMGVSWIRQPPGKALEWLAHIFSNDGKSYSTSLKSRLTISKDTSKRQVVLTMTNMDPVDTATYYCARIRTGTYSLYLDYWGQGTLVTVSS VL: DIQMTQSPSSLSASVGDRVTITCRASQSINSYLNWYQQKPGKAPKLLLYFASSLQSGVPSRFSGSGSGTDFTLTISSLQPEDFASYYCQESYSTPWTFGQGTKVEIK , report ka.
Result: 554000

Q: Identify ka associated with the molecule H1H6797P: fully human anti-PRLR antibody, human IgG1 Fc; HCVR/LCVR SEQ ID NOs 178/186 (antibody, V domains shown) VH: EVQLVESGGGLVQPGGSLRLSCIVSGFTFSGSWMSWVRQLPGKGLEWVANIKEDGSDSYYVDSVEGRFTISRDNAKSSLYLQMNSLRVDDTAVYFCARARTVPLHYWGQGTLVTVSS VL: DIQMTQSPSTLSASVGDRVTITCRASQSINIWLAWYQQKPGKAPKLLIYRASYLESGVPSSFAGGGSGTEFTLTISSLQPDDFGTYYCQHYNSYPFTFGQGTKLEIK
Result: 1.8e+06

Q: Using known records, supply ka for H1H6959N2: anti-PRLR antibody, human IgG1 Fc form of H2M6959N2 of Table 1; HCVR/LCVR SEQ ID NOs 306/314 (antibody, V domains shown) VH: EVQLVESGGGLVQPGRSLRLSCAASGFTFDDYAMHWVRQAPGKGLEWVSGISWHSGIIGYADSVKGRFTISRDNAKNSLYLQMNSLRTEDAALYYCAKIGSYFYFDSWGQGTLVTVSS VL: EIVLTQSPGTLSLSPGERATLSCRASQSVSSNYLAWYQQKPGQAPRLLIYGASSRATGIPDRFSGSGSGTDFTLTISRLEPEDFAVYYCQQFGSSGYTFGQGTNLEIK
Result: 509000
